Give measured Kd for each item. Keep answers brief.
Target: TDP-43 N-RRM1-2 (UniProt Q13148 1-269)
Sequence (Q13148 1-269): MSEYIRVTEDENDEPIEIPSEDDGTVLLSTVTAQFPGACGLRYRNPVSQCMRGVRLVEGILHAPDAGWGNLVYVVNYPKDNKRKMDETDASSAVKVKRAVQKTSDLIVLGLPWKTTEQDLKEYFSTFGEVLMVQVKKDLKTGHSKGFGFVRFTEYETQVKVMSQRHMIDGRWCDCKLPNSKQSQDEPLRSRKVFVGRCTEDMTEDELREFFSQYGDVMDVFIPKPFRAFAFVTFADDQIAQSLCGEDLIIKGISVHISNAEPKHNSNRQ
Assay: BLI
Answer format: value, then unit.

List Kd for every entry below, keeping the order given.
1. AAGUGUGGUAUA (ssRNA) [RNA12S2]
2. CUCACAUUAUCA (ssRNA) [NegRNA12S2]
3. AUUCAUUCACAC (ssRNA) [NegRNA12]
4. GUGUGAAUGAAU (ssRNA) [RNA12]
5. UUAUACCUACCA (ssRNA) [NegRNA12S1]
6. GUGUGAAUGAAUGUGUGAAUGAAUGUGUGAAUGAAU (ssRNA) [RNA36]
7. UAGAGUAUGAUG (ssRNA) [RNA12S1]

Response line:
["75 nM", "1340 nM", "1900 nM", "6.3 nM", "1650 nM", "22 nM", "60 nM"]

Source of measurements: paper PMC6461199
